// data source = patent US7429564B2

test: Example 5: 4-CNAB plasma pharmacokinetics, single oral doses, healthy male volunteers; assay type: in vivo, human; details: male, human, plasma, po, with insulin, 150 Units/100 mg oral; read-out: 4-CNAB Vz/F
measure-name: Vd/F (L)
Answers are plain numbers, in L.

Any idea what its Vd/F is? The compound is O=C(O)CCCNC(=O)c1ccc(Cl)cc1O 148

###

Experiment: Example 8: food effect on 4-CNAB pharmacokinetics, type 1 diabetes patients
Assay type: in vivo, human
Conditions: human, plasma, oral, period 0-30 minutes post-dose; Breakfast 20 min post-dose
Description: A single-center, open label, randomized, single dose, 3-way cross-over study was conducted in type 1 diabetes mellitus patients to investigate the effect of food on the absorption and pharmacokinetics of insulin after a single dose of oral 4-CNAB/insulin, and to determine the effect of food on the pharmacodynamics of glucose and C-peptide after a single oral dose of 4-CNAB/insulin. […]
measure-name: AUC (ng·h/mL)
One number for each entry, in ng·h/mL.

Any idea what its AUC is? The compound is O=C(O)CCCNC(=O)c1ccc(Cl)cc1O 6370

###

assay: Example 8: food effect on 4-CNAB pharmacokinetics, type 1 diabetes patients; type: in vivo, human; conditions: human, plasma, oral, period 0-3 hours post-dose; Breakfast 20 min post-dose
measure-name: AUC (ng·h/mL)
Give bare numbers, in ng·h/mL.

Any idea what its AUC is? The compound is O=C(O)CCCNC(=O)c1ccc(Cl)cc1O [4-CNAB] 16500

###

assay: Example 8: food effect on 4-CNAB pharmacokinetics, type 1 diabetes patients; type: in vivo, human; details: human, plasma, oral, period 0-30 minutes post-dose; Fasting; read-out: Plasma 4-CNAB tmax
measure-name: Tmax
Don't forget the unit after the number, please.

Any idea what its Tmax is? The compound is O=C(O)CCCNC(=O)c1ccc(Cl)cc1O [4-CNAB] 23.4 min

###

assay: Example 5: 4-CNAB plasma pharmacokinetics, single oral doses, healthy male volunteers; format: in vivo, human; settings: male, human, plasma, po, with insulin, 100 Units/450 mg oral; read-out: 4-CNAB MRT(0-f)
measure-name: MRT (h)
One number for each entry, in h.

Any idea what its MRT is? The molecule is O=C(O)CCCNC(=O)c1ccc(Cl)cc1O [4-CNAB] 1.79

###

assay: Example 5: 4-CNAB plasma pharmacokinetics, single oral doses, healthy male volunteers; assay type: in vivo, human; details: male, human, plasma, po, 2000 mg, 4-CNAB alone 2000 mg oral; read-out: 4-CNAB MRT(0-inf)
measure-name: MRT inf
Don't forget the unit after the number, please.

Any idea what its MRT inf is? The compound is O=C(O)CCCNC(=O)c1ccc(Cl)cc1O 7.45 h

###

experiment: Example 5: 4-CNAB plasma pharmacokinetics, single oral doses, healthy male volunteers; type: in vivo, human; details: male, human, plasma, po, with insulin, 100 Units/300 mg oral; read-out: 4-CNAB tmax, median
measure-name: Tmax (min)
One number for each entry, in min.

Any idea what its Tmax is? The compound is O=C(O)CCCNC(=O)c1ccc(Cl)cc1O 30

###

assay: Example 5: 4-CNAB plasma pharmacokinetics, single oral doses, healthy male volunteers; type: in vivo, human; conditions: male, human, plasma, po, 800 mg, 4-CNAB alone 800 mg oral
measure-name: AUC(0-t) (ng·h/mL)
One number for each entry, in ng·h/mL.

Any idea what its AUC(0-t) is? The molecule is O=C(O)CCCNC(=O)c1ccc(Cl)cc1O [4-CNAB] 44300

###

Assay: Example 8: food effect on 4-CNAB pharmacokinetics, type 1 diabetes patients
Format: in vivo, human
Conditions: human, plasma, oral, period 0-20 minutes post-dose; Breakfast 30 min post-dose; read-out: Plasma 4-CNAB tmax
Method: A single-center, open label, randomized, single dose, 3-way cross-over study was conducted in type 1 diabetes mellitus patients to investigate the effect of food on the absorption and pharmacokinetics of insulin after a single dose of oral 4-CNAB/insulin, and to determine the effect of food on the pharmacodynamics of glucose and C-peptide after a single oral dose of 4-CNAB/insulin. […]
measure-name: Tmax

Any idea what its Tmax is? The compound is O=C(O)CCCNC(=O)c1ccc(Cl)cc1O 19.8 min

###

experiment: Example 8: food effect on 4-CNAB pharmacokinetics, type 1 diabetes patients; format: in vivo, human; conditions: human, plasma, oral, period 0-3 hours post-dose; Breakfast 20 min post-dose
measure-name: Cmax (ng/mL)
Numbers only, in ng/mL.

Any idea what its Cmax is? The compound is O=C(O)CCCNC(=O)c1ccc(Cl)cc1O [4-CNAB] 25000

###

assay: Example 5: 4-CNAB plasma pharmacokinetics, single oral doses, healthy male volunteers; format: in vivo, human; conditions: male, human, plasma, oral, Group/Treatment 3/2, 4-CNAB dose 450, with insulin; unaudited data
measure-name: Cmax (ng/mL)
Give bare numbers, in ng/mL.

Any idea what its Cmax is? The molecule is O=C(O)CCCNC(=O)c1ccc(Cl)cc1O [4-CNAB] 20100

###

assay: Example 5: 4-CNAB plasma pharmacokinetics, single oral doses, healthy male volunteers; assay type: in vivo, human; settings: male, human, plasma, po, with insulin, 100 Units/300 mg oral; read-out: 4-CNAB MRT(0-inf)
measure-name: MRT inf
Don't forget the unit after the number, please.

Any idea what its MRT inf is? The compound is O=C(O)CCCNC(=O)c1ccc(Cl)cc1O [4-CNAB] 2.43 h

###

experiment: Example 5: 4-CNAB plasma pharmacokinetics, single oral doses, healthy male volunteers; type: in vivo, human; conditions: 4-CNAB alone 2000 mg oral
measure-name: 4-CNAB Kel (h⁻¹)
Give bare numbers, in h⁻¹.

Any idea what its 4-CNAB Kel is? The compound is O=C(O)CCCNC(=O)c1ccc(Cl)cc1O 0.06

###

experiment: Example 5: 4-CNAB plasma pharmacokinetics, single oral doses, healthy male volunteers; format: in vivo, human; settings: male, human, plasma, oral, 800 mg, Group/Treatment 1/2, 4-CNAB dose 800, alone; unaudited data
measure-name: Cmax (ng/mL)
Answers are plain numbers, in ng/mL.

Any idea what its Cmax is? The compound is O=C(O)CCCNC(=O)c1ccc(Cl)cc1O 32700

###

assay: Example 5: 4-CNAB plasma pharmacokinetics, single oral doses, healthy male volunteers; assay type: in vivo, human; conditions: 4-CNAB alone 1400 mg oral
measure-name: 4-CNAB Kel (h⁻¹)
Numbers only, in h⁻¹.

Any idea what its 4-CNAB Kel is? The compound is O=C(O)CCCNC(=O)c1ccc(Cl)cc1O 0.18

###

assay: Example 5: 4-CNAB plasma pharmacokinetics, single oral doses, healthy male volunteers; type: in vivo, human; settings: male, human, plasma, po, with insulin, 100 Units/600 mg oral; read-out: 4-CNAB MRT(0-inf)
measure-name: MRT inf (h)
Numbers only, in h.

Any idea what its MRT inf is? The molecule is O=C(O)CCCNC(=O)c1ccc(Cl)cc1O 1.9

###

Test: Example 5: 4-CNAB plasma pharmacokinetics, single oral doses, healthy male volunteers
Assay type: in vivo, human
Details: male, human, plasma, po, with insulin, 100 Units/600 mg oral
Method: A single center, double-blind, randomized placebo-controlled study undertaken in healthy human subjects in order to assess the safety and tolerability of escalating single oral doses of 4-CNAB capsules and insulin/4-CNAB capsules. […] The concentration of 4-CNAB in plasma was determined using a combination of liquid chromatography and Mass spectrometry assay known as LC-MS/MS. […] The eluting peaks were quantified by MS/MS. […]
measure-name: AUC(0-t) (ng·h/mL)
Give bare numbers, in ng·h/mL.

Any idea what its AUC(0-t) is? The compound is O=C(O)CCCNC(=O)c1ccc(Cl)cc1O 36600

###

test: Example 5: 4-CNAB plasma pharmacokinetics, single oral doses, healthy male volunteers; type: in vivo, human; conditions: male, human, plasma, po, with insulin, 150 Units/200 mg oral; read-out: 4-CNAB t1/2 (converted)
measure-name: half-life (min)
Give bare numbers, in min.

Any idea what its half-life is? The molecule is O=C(O)CCCNC(=O)c1ccc(Cl)cc1O 192
